Test Name: Systemic exposure to 4a after single oral gavage (suspension) or loose-filled capsule in monkeys (plasma LC/MS/MS, PK)
Assay type: in vivo, male cynomolgus monkeys
Protocol Conditions: male, cynomolgus, cynomolgus monkey, plasma, po, 50 mg capsule, read-out: Cmax, mean (±SD)
Measurement Label: Cmax (ng/mL)
Give the value, in units of ng/mL, as a plain number.

# input compound: CO[C@@H]1[C@@H](O)[C@@H](O)[C@H](Oc2ccc(CCNC(C)=O)c(-c3cccc(F)c3)c2)OC1(C)C ; wanted: its Cmax 19.7

----------
Test Name: Systemic exposure to 4a after single oral gavage (suspension) or loose-filled capsule in monkeys (plasma LC/MS/MS, PK)
Type: in vivo
Protocol Conditions: male, cynomolgus, cynomolgus monkey, oral gavage suspension 30 mg/kg, 0.25 hr, read-out: 4a Plasma Concentration, mean (±SD)
Measurement Label: concentration at […] (ng/mL)
Give the value, in units of ng/mL, as a plain number.

# input molecule: CO[C@@H]1[C@@H](O)[C@@H](O)[C@H](Oc2ccc(CCNC(C)=O)c(-c3cccc(F)c3)c2)OC1(C)C ; wanted: its concentration at […] 103
